- target: T1, human Activin A (R&D Systems) (human, UniProt P08476 311-426)
- T1 sequence (looked up): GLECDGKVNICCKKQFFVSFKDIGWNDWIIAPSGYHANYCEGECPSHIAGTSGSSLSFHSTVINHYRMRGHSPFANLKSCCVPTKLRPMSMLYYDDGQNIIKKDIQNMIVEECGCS
- assayName: cell-based or functional assay
reportedMetric: ARE-luciferase IC50 (nM)

(a) 2987_B09 (designed binder) MGVSDVPRDLEVVAATPTSLLISWTLPHAGRAHYYRITYGETGGNSPVQEFTVPGRGVTATISGLKPGVDYTITVYAVTLTRSKIIHYMPISINYRTEIDKPSQHHHHHH
(b) 2987_A06 (designed binder) MGVSDVPRDLEVVAATPTSLLISWSLPHAGHAHYYRITYGETGGNSPVQEFTVPGRGVTATISGLKPGVDYTITVYAVTLTKSKIIHYMPISINYRTEIDKPSQHHHHHH
Given the listed items, does a or b have the lesser reported ARE-luciferase IC50? Pick one and reply with its label.
a
